# Tested on: BVDV NADL virus
# Assay protocol: CPE-based antiviral assay, BVDV NADL in MDBK cells (MTS/PMS)
# Assay conditions: Bovine viral diarrhea virus isolates and strains, MDBK, 72 h
pEC50: −log10 of the molar value.
Criterion: pEC50 meeting or surpassing 6. Met: TRUE. Not met: FALSE.

Compound	Assay target	Assigned category
O=C(Nc1ccn(-c2ccccc2)n1)c1cc(-c2ccccc2F)nc2ccccc12	BVDV NADL virus	TRUE
Cc1cccc2sc(NC(=O)c3cc(-c4cccn4C)nc4ccccc34)nc12	BVDV NADL virus	TRUE
O=C(Nc1ccn(-c2ccccc2)n1)c1cc(-c2ccc(F)cc2)nc2ccc(F)cc12	BVDV NADL virus	TRUE
O=C(Nc1nc2c(F)cc(Br)cc2s1)c1cc(-c2ccccc2)nc2ccccc12	BVDV NADL virus	TRUE
Cc1ccc2nc(NC(=O)c3cc(O)nc4ccccc34)sc2c1	BVDV NADL virus	FALSE
O=C(Nc1ccn(-c2ccccc2)n1)c1cc(-c2ccc(Cl)s2)nc2ccccc12	BVDV NADL virus	FALSE
O=C(Nc1ccn(-c2ccc(F)cc2)n1)c1cc(-c2ccccc2)nc2ccccc12	BVDV NADL virus	TRUE
Cn1c(NC(=O)c2cc(-c3ccccc3)nc3ccccc23)nc2ccccc21	BVDV NADL virus	FALSE

Is pEC50 for Cc1ccc2nc(NC(=O)c3cc[n+]([O-])cc3)sc2c1 [CSFC-27, [O-][n+]1ccc(cc1)C(=O)Nc1nc2ccc(C)cc2s1] at or above 6? FALSE

Is pEC50 for Cc1cccc2sc(NC(=O)c3cc(-c4cccs4)nc4ccccc34)nc12 at or above 6? TRUE

Is pEC50 for O=C(Nc1ccncc1)c1cc(-c2ccccc2)nc2ccccc12 at or above 6? FALSE

Is pEC50 for Cc1ccc2nc(NC(=O)c3ncc[nH]3)sc2c1 [CSFC-30, Cc1ccc2nc(NC(=O)c3ncc[NH]3)sc2c1] at or above 6? FALSE

Is pEC50 for CS(=O)(=O)c1ccc2nc(NC(=O)c3cc(-c4ccccc4)nc4ccccc34)sc2c1 at or above 6? FALSE

Is pEC50 for O=C(Nc1ccn(-c2cccc(F)c2)n1)c1cc(-c2cccnc2)nc2ccccc12 at or above 6? FALSE

Is pEC50 for Cc1csc(-c2cc(C(=O)Nc3nc4c(C)cccc4s3)c3ccccc3n2)c1 at or above 6? FALSE

Is pEC50 for Cc1cccc2sc(NC(=O)c3cc(-c4cc5ccccc5o4)nc4ccccc34)nc12 at or above 6? FALSE

Is pEC50 for O=C(Nc1nc2ccc(C(F)(F)F)cc2s1)c1cc(-c2ccccc2)nc2ccccc12 at or above 6? FALSE

Is pEC50 for O=C(Nc1ccn(-c2ccccc2F)n1)c1cc(-c2ccccc2)nc2ccccc12 at or above 6? FALSE

Is pEC50 for Cc1cccc2sc(NC(=O)c3cc(-c4cnccn4)nc4ccccc34)nc12 at or above 6? TRUE

Is pEC50 for Cc1ccc2nc(NC(=O)c3cc4ccccc4n3C)sc2c1 at or above 6? FALSE

###

# Tested on: BVDV NADL virus
# Assay protocol: CPE-based antiviral assay, BVDV NADL in MDBK cells (MTS/PMS)
# Assay conditions: Bovine viral diarrhea virus isolates and strains, MDBK, 72 h
Provide the recorded log10 of EC50 for the entries that follow.
Reminder: these figures are log10 of reported EC50, in nM before transformation.

Known results for compounds:
Smiles code	Reported measurement
O=C(Nc1ccn(-c2ccccc2)n1)c1cc(-c2ccccn2)nc2ccccc12	2.30
Cc1ccc2nc(-c3ccco3)cc(C(=O)Nc3nc4c(C)cccc4s3)c2c1	3.94
Cc1ccc2nc(NC(=O)c3cc(-c4ccccc4F)nc4ccccc34)sc2c1	2.30

I would be grateful if you could provide log10 of EC50 for each of the following entries.
1. CCOc1ccc2nc(NC(=O)c3cc(-c4ccco4)nc4ccccc34)sc2c1
2. O=C(Nc1ccn(-c2ccccc2)n1)c1cc(-c2ccc3ccccc3c2)nc2ccccc12
3. Cc1ccc2nc(NC(=O)c3cc(-c4ccccc4)nc4ccccc34)sc2c1

1. 2.70
2. 1.48
3. 3.76

Where do the numbers come from? From paper PMC7144022.
